Where do the numbers come from? From ChEMBL document CHEMBL1149147.

targetUnderTest: Adrenergic receptor alpha-1 (Rattus norvegicus, UniProt P15823+P23944+P43140)
protocol: In vitro inhibitory activity against alpha-1 adrenergic receptor binding to rat brain membranes
Parameters: species or system Membrane
quantityKind: log10(IC50) (log10 of the value in nM)
# log10 transformed; quantity=IC50; unit=nM

For Oc1cccc2[nH]c(Cc3ccc(Oc4ccccc4)cc3)nc12 , what is its reported log10(IC50)?
3.74

For O=[N+]([O-])c1ccc2[nH]c(Cc3ccc(Oc4ccccc4)cc3)nc2c1 , what is its reported log10(IC50)?
3.08

For CS(=O)(=O)Nc1ccc2[nH]c(Cc3ccc(Oc4ccccc4)cc3)nc2c1 , what is its reported log10(IC50)?
3.60

For Oc1ccc2[nH]c(Cc3ccc(Oc4ccccc4)cc3)nc2c1 , what is its reported log10(IC50)?
2.30

For Oc1ccc2[nH]c(CN3CCC(Cc4ccccc4F)CC3)nc2c1 , what is its reported log10(IC50)?
2.86

For O=S(=O)(Nc1ccc2[nH]c(Cc3ccc(Oc4ccccc4)cc3)nc2c1)c1ccccc1 , what is its reported log10(IC50)?
4.15

For Oc1ccc2[nH]c(CN3CCC(Cc4cccc(F)c4)CC3)nc2c1 , what is its reported log10(IC50)?
2.72

For N#Cc1ccc2[nH]c(Cc3ccc(Oc4ccccc4)cc3)nc2c1 , what is its reported log10(IC50)?
3.53

For COc1ccc2[nH]c(Cc3ccc(Oc4ccccc4)cc3)nc2c1 , what is its reported log10(IC50)?
2.72

For c1ccc(CC2CCN(Cc3nc4ccccc4[nH]3)CC2)cc1 , what is its reported log10(IC50)?
3.45

For CC(=O)Nc1ccc2[nH]c(Cc3ccc(Oc4ccccc4)cc3)nc2c1 , what is its reported log10(IC50)?
4.30

For CS(=O)(=O)Nc1ccc2nc(CN3CCC(Cc4ccccc4)CC3)[nH]c2c1 , what is its reported log10(IC50)?
3.18

For Oc1ccc2[nH]c(CN3CCC(Cc4c(F)cccc4F)CC3)nc2c1 , what is its reported log10(IC50)?
3.41

====

targetUnderTest: Voltage-gated inwardly rectifying potassium channel KCNH2 (Homo sapiens)
Sequence (Q12809 whole entry): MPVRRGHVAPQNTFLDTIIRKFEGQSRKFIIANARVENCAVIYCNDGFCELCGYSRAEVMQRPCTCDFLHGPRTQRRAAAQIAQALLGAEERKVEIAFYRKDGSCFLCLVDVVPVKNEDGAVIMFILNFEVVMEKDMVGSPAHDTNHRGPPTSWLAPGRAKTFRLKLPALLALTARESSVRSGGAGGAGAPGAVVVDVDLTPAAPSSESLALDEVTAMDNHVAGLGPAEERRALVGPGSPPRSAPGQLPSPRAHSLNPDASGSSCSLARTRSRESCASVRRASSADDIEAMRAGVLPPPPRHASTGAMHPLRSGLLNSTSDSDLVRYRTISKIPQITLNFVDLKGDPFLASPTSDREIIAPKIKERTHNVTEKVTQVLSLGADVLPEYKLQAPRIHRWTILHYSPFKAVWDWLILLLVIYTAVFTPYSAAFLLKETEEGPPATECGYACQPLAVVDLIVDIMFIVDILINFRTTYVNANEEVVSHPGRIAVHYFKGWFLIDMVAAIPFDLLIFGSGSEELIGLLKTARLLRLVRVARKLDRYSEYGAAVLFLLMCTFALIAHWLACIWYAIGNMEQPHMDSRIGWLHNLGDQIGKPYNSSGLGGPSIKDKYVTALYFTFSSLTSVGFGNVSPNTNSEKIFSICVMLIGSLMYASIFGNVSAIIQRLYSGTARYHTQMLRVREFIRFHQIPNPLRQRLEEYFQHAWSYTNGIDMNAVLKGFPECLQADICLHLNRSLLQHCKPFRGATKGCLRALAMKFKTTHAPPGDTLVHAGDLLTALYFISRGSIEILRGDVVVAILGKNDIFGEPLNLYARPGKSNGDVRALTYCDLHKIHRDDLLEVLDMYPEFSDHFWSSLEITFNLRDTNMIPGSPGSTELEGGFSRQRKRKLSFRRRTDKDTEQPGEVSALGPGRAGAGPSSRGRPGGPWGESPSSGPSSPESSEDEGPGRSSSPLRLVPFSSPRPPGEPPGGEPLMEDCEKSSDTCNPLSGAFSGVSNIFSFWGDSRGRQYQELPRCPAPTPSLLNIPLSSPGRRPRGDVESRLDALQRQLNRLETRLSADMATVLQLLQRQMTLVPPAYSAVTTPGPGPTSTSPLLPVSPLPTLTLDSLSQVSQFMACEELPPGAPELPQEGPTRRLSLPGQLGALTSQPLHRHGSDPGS
protocol: In vitro inhibition of MK-499 binding to hERG in HEK293 cells
runConditions: read-out: IP
For each record, check the reported IC50: if it is below 900 nM write Y, else write N.

In plain terms, does Nc1ccc2[nH]c(Cc3ccc(Oc4ccccc4)cc3)nc2c1 come in under 900 nM for IC50?
Y

In plain terms, does Oc1ccc2[nH]c(Cc3ccc(Oc4ccccc4)cc3)nc2c1 come in under 900 nM for IC50?
Y

In plain terms, does CS(=O)(=O)Nc1ccc2[nH]c(Cc3ccc(Oc4ccccc4)cc3)nc2c1 come in under 900 nM for IC50?
Y

In plain terms, does CCS(=O)(=O)Nc1ccc2[nH]c(Cc3ccc(Oc4ccccc4)cc3)nc2c1 come in under 900 nM for IC50?
N

In plain terms, does CCCS(=O)(=O)Nc1ccc2[nH]c(Cc3ccc(Oc4ccccc4)cc3)nc2c1 come in under 900 nM for IC50?
Y

In plain terms, does c1ccc(CC2CCN(Cc3nc4ccccc4[nH]3)CC2)cc1 come in under 900 nM for IC50?
N

In plain terms, does Oc1ccc2[nH]c(CN3CCC(Cc4ccc(F)cc4)CC3)nc2c1 come in under 900 nM for IC50?
Y

In plain terms, does CC(=O)Nc1ccc2[nH]c(Cc3ccc(Oc4ccccc4)cc3)nc2c1 come in under 900 nM for IC50?
N

In plain terms, does Oc1cccc2[nH]c(Cc3ccc(Oc4ccccc4)cc3)nc12 come in under 900 nM for IC50?
Y

In plain terms, does Oc1ccc2[nH]c(CN3CCC(Cc4ccccc4F)CC3)nc2c1 come in under 900 nM for IC50?
N

====

protocol: Plasma clearance (in vivo) in mongrel dogs was determined
Assay type: ADME, organism-based, Canis lupus familiaris
runConditions: dog
quantityKind: clearance (mL/min/kg)
Provide only the numeric value, understood in mL/min/kg.

For Oc1ccc2[nH]c(CN3CCC(Cc4ccccc4)CC3)nc2c1 , what is its reported clearance?
0.6

For Oc1ccc2[nH]c(CN3CCC(Cc4ccccc4F)CC3)nc2c1 , what is its reported clearance?
0.6

====

I'd appreciate it if you could supply half-life values for the items below.
protocol: Half-life in mongrel dogs was determined
Assay type: ADME, organism-based, Canis lupus familiaris
runConditions: dog, in vivo
Field: value (include unit after the number)

For Oc1ccc2[nH]c(CN3CCC(Cc4ccccc4)CC3)nc2c1 , what is its reported half-life?
6.7 h

For Oc1ccc2[nH]c(CN3CCC(Cc4ccccc4F)CC3)nc2c1 , what is its reported half-life?
6.5 h

====

protocol: Half-life in rats was determined
Format: ADME, organism-based
runConditions: rat, in vivo
quantityKind: half-life (h)
Provide only the numeric value, understood in h.

For CS(=O)(=O)Nc1ccc2[nH]c(Cc3ccc(Oc4ccccc4)cc3)nc2c1 , what is its reported half-life?
1.97

For Oc1ccc2[nH]c(CN3CCC(Cc4ccccc4F)CC3)nc2c1 , what is its reported half-life?
1

====

targetUnderTest: Glutamate NMDA receptor; GRIN1/GRIN2B (Homo sapiens, UniProt Q05586+Q13224)
Sequence (Q13224 whole entry, other chains not shown): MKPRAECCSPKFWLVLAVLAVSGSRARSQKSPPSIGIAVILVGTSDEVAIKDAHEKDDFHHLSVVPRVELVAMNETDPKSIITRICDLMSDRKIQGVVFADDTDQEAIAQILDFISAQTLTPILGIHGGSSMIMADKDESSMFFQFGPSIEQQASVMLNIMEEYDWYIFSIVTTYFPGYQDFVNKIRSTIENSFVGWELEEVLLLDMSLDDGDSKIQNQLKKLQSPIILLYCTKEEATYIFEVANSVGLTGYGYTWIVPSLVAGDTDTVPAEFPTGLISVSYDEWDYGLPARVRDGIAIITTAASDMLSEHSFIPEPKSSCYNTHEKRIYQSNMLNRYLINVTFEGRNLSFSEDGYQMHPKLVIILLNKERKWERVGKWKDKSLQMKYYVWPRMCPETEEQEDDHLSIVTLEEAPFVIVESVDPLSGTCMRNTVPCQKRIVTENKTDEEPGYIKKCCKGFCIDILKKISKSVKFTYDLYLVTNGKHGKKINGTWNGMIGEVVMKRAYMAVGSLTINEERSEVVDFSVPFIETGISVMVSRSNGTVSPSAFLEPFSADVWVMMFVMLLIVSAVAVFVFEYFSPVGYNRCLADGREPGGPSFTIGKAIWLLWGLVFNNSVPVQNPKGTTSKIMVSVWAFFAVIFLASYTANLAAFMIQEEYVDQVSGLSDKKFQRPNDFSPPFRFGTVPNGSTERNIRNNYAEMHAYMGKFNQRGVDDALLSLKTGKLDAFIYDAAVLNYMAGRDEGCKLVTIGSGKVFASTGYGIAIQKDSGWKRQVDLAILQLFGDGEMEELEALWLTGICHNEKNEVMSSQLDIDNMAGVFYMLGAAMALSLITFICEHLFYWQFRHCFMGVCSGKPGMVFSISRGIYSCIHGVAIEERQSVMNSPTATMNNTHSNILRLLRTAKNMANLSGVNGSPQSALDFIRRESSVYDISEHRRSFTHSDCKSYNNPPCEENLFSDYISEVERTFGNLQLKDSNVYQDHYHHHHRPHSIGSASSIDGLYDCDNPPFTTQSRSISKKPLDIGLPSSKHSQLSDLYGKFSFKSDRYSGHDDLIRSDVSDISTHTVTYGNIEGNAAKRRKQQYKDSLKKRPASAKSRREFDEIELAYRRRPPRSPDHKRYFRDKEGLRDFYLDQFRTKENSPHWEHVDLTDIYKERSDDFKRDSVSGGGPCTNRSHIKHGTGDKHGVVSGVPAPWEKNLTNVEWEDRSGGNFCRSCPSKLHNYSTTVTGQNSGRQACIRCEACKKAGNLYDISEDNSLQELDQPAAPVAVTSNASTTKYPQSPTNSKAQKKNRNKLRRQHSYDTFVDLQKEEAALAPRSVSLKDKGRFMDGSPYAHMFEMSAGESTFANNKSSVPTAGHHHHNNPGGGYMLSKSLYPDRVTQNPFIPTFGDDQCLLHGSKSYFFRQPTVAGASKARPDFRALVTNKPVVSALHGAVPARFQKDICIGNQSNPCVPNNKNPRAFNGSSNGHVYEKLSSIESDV
protocol: In vitro inhibition of Glu/Gly stimulated [Ca2+] influx in LtK-cells expressing the hNR1a/NR2B receptor
quantityKind: pIC50
API: returns pIC50 as number; meaning -log10 of concentration in mol/L.

For Oc1ccc2[nH]c(CN3CCC(Cc4ccccc4)CC3)nc2c1 , what is its reported pIC50?
8.09

For CS(=O)(=O)Nc1ccc2[nH]c(Cc3ccc(Oc4ccccc4)cc3)nc2c1 , what is its reported pIC50?
9.14

For COc1ccc2[nH]c(Cc3ccc(Oc4ccccc4)cc3)nc2c1 , what is its reported pIC50?
5.04

For Oc1ccc2[nH]c(Cc3ccc(Oc4ccccc4)cc3)nc2c1 , what is its reported pIC50?
8.04

For N#Cc1ccc2[nH]c(Cc3ccc(Oc4ccccc4)cc3)nc2c1 , what is its reported pIC50?
6.10

For CC(=O)Nc1ccc2[nH]c(Cc3ccc(Oc4ccccc4)cc3)nc2c1 , what is its reported pIC50?
7.38

For Oc1ccc2[nH]c(CN3CCC(Cc4c(F)cccc4F)CC3)nc2c1 , what is its reported pIC50?
7.68

For CN(c1ccc2[nH]c(Cc3ccc(Oc4ccccc4)cc3)nc2c1)S(C)(=O)=O , what is its reported pIC50?
7.60

For Oc1cccc2[nH]c(Cc3ccc(Oc4ccccc4)cc3)nc12 , what is its reported pIC50?
6.82

For Oc1ccc2[nH]c(CN3CCC(Cc4cccc(F)c4)CC3)nc2c1 , what is its reported pIC50?
7.36

For Oc1ccc2[nH]c(CN3CCC(Cc4ccc(F)cc4)CC3)nc2c1 , what is its reported pIC50?
7.92

For Nc1ccc2[nH]c(Cc3ccc(Oc4ccccc4)cc3)nc2c1 , what is its reported pIC50?
7.11

For CCCS(=O)(=O)Nc1ccc2[nH]c(Cc3ccc(Oc4ccccc4)cc3)nc2c1 , what is its reported pIC50?
7.72

For CC(C)S(=O)(=O)Nc1ccc2[nH]c(Cc3ccc(Oc4ccccc4)cc3)nc2c1 , what is its reported pIC50?
7.85

For Cc1ccc(CC2CCN(Cc3nc4cc(O)ccc4[nH]3)CC2)cc1 , what is its reported pIC50?
8.24

For Oc1ccc2[nH]c(CN3CCC(Cc4ccccc4F)CC3)nc2c1 , what is its reported pIC50?
8.01
